Target: HO-1 (Rattus norvegicus)
Construct: selected in order to use the most native (i.e., closest to in vivo) forms of HO-1; from tissue; host or cells: spleen microsomal fraction of male Sprague-Dawley rats
Sequence (P06762 whole entry): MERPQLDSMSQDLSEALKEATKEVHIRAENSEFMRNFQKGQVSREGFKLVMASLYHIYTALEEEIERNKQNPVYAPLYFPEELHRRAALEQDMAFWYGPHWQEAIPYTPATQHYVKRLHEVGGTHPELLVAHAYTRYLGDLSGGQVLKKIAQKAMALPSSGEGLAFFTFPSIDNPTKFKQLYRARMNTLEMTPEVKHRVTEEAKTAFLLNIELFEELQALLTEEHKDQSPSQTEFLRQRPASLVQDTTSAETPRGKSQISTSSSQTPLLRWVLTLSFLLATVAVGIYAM
Assay: HO-1 inhibition, bilirubin formation in rat spleen microsomal fraction
Format: biochemical
Details: Table S1
Method: The new HO-1/σRs hybrids 1–4 were tested to evaluate their HO-1 inhibitory activity. The enzyme was obtained from the microsomal fractions of rat spleen. Determination of HO-1 activity was performed by measuring the bilirubin formation using the difference in absorbance at 464–530 nm, as reported in the experimental section. […] The HO-1 activities were determined by measuring the bilirubin formation using the difference in absorbance at 464–530 nm. […]
value type: IC50 (µM)
Output spec: scalar in µM, unitless text.

Observed IC50, HO-1 (Rattus norvegicus), O=C(CCCc1ccc(OCCCCn2ccnc2)cc1)N1CCN(Cc2ccccc2)CC1 : 87.7

Observed IC50, HO-1 (Rattus norvegicus), O=C(Cc1ccc(OCCCCn2ccnc2)cc1)N1CCN(Cc2ccccc2)CC1 : 216
